- TESTED TARGET: mGluR5 receptor (Sus scrofa)
- Construct: from tissue; host or cells: pig brain halves without medulla, cerebellum and pons
- Sequence (I3LUI7 19-1212): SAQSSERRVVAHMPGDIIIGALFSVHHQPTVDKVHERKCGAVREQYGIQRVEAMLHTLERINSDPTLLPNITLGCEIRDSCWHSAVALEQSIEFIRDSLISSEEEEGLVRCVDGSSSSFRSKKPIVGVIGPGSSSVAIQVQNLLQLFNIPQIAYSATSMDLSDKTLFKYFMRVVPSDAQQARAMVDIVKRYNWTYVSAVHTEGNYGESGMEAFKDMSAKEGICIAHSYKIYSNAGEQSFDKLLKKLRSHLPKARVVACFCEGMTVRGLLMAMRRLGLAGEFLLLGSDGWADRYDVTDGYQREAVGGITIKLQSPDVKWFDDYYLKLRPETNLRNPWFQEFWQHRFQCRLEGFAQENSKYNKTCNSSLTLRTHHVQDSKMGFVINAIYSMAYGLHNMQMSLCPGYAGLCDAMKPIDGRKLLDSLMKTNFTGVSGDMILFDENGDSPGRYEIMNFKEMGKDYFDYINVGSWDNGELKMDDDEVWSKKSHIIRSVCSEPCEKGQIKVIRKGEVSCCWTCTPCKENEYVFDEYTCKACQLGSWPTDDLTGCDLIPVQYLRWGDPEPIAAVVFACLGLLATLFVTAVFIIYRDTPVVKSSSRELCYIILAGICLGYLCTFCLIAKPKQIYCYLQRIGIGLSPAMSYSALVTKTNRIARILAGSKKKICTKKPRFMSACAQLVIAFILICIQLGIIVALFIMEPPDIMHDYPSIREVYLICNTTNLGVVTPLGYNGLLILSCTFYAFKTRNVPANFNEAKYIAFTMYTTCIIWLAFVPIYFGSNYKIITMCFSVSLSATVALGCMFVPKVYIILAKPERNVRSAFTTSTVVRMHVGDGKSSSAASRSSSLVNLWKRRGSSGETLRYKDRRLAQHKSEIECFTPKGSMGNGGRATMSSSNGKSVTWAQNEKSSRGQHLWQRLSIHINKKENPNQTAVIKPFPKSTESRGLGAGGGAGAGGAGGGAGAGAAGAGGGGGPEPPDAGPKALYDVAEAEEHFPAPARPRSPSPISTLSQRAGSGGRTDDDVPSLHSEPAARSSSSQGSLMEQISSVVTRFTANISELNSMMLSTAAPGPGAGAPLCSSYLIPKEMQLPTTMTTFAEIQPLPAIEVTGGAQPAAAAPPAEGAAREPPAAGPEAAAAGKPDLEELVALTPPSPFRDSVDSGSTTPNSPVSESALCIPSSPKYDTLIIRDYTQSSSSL
- PROCEDURE DETAILS: [3H]-MPEP binding in the mGluR5 receptor binding assay (pig brain homogenate)
- RECORDED CONDITIONS: Table II; unit inferred
pIC50: −log10 of the molar value.
Rule: 1 for pIC50 not less than 6, 0 for anything less.

- COMPOUND: "O=C(C#Cc1ccccc1)N1CCN(c2ncc(Br)s2)CC1"
  ASSIGNED CATEGORY: 1
- COMPOUND: "O=C(C#Cc1cccc(C(F)F)c1)N1CCN(c2nccs2)CC1"
  ASSIGNED CATEGORY: 1
- COMPOUND: "O=C(C#Cc1ccc(F)cc1F)N1CCN(c2nccs2)CC1"
  ASSIGNED CATEGORY: 0
- COMPOUND: "C=Cc1cccc(C#CC(=O)N2CCN(c3nccs3)CC2)c1"
  ASSIGNED CATEGORY: 1
- COMPOUND: "CNc1cccc(C#CC(=O)N2CCN(c3nccs3)CC2)c1"
  ASSIGNED CATEGORY: 1
- COMPOUND: "CCC1CN(c2nccs2)CCN1C(=O)C#Cc1ccccc1 (stereo not drawn)"
  ASSIGNED CATEGORY: 1
- COMPOUND: "O=C(C#Cc1ccoc1)N1CCN(c2nccs2)CC1"
  ASSIGNED CATEGORY: 0
- COMPOUND: "CCCCCC#CC(=O)N1CCN(c2nccs2)CC1"
  ASSIGNED CATEGORY: 0
- COMPOUND: "Cc1csc(C#CC(=O)N2CCN(c3nccs3)CC2)c1"
  ASSIGNED CATEGORY: 1
- COMPOUND: "CC(C)(C)C1CN(c2nccs2)CCN1C(=O)C#Cc1ccccc1 (stereo not drawn)"
  ASSIGNED CATEGORY: 1
- COMPOUND: "CC1CN(c2nccs2)CCN1C(=O)C#Cc1cccc(Cl)c1 (stereo not drawn)"
  ASSIGNED CATEGORY: 1

* * *

- TESTED TARGET: mGluR5 receptor (Sus scrofa)
- Construct: from tissue; host or cells: pig brain halves without medulla, cerebellum and pons
- PROCEDURE DETAILS: [3H]-MPEP binding in the mGluR5 receptor binding assay (pig brain homogenate)
- RECORDED CONDITIONS: 10 μM; pig brain homogenate; 5 nM [3H]-MPEP
Class (by mGluR5-receptor (% inhibition 10 μM) in pigs) -- label 0 = under 40%, label 1 = from 40% up to 80%, label 2 = 80% and over

- COMPOUND: "CC1CN(c2nccs2)CCN1C(=O)C#Cc1ccccc1.Cl (stereo not drawn)"
  TESTED TARGET: "mGluR5 receptor (Sus scrofa)"
  ASSIGNED CATEGORY: "label 2"
- COMPOUND: "C[C@H]1CN(c2nccs2)CCN1C(=O)C#Cc1ccccc1"
  TESTED TARGET: "mGluR5 receptor (Sus scrofa)"
  ASSIGNED CATEGORY: "label 1"
- COMPOUND: "Nc1ccccc1C#CC(=O)N1CCN(c2nccs2)CC1"
  TESTED TARGET: "mGluR5 receptor (Sus scrofa)"
  ASSIGNED CATEGORY: "label 1"
- COMPOUND: "CC(=O)Nc1cccc(C#CC(=O)N2CCN(c3nccs3)CC2)c1"
  TESTED TARGET: "mGluR5 receptor (Sus scrofa)"
  ASSIGNED CATEGORY: "label 0"
- COMPOUND: "O=C(C#Cc1cccc(F)c1)N1CCN(c2nc(-c3ccccc3)ns2)CC1"
  TESTED TARGET: "mGluR5 receptor (Sus scrofa)"
  ASSIGNED CATEGORY: "label 1"
- COMPOUND: "Cc1ccccc1C#CC(=O)N1CCN(c2nccs2)CC1.Cl"
  TESTED TARGET: "mGluR5 receptor (Sus scrofa)"
  ASSIGNED CATEGORY: "label 0"
- COMPOUND: "O=C(C#Cc1ccccn1)N1CCN(c2nccs2)CC1"
  TESTED TARGET: "mGluR5 receptor (Sus scrofa)"
  ASSIGNED CATEGORY: "label 1"
- COMPOUND: "COCc1cccc(C#CC(=O)N2CCN(c3nccs3)CC2)c1"
  TESTED TARGET: "mGluR5 receptor (Sus scrofa)"
  ASSIGNED CATEGORY: "label 2"
- COMPOUND: "Cc1ccc(C#CC(=O)N2CCN(c3ncc(C)s3)CC2)cc1"
  TESTED TARGET: "mGluR5 receptor (Sus scrofa)"
  ASSIGNED CATEGORY: "label 1"
- COMPOUND: "O=C(C#Cc1ccccc1Cl)N1CCN(c2nccs2)CC1"
  TESTED TARGET: "mGluR5 receptor (Sus scrofa)"
  ASSIGNED CATEGORY: "label 1"
- COMPOUND: "O=C(C#Cc1ccccc1)N1CCN(c2ncns2)CC1"
  TESTED TARGET: "mGluR5 receptor (Sus scrofa)"
  ASSIGNED CATEGORY: "label 2"
- COMPOUND: "C[S+]([O-])c1cccc(C#CC(=O)N2CCN(c3nccs3)CC2)c1 (stereo not drawn)"
  TESTED TARGET: "mGluR5 receptor (Sus scrofa)"
  ASSIGNED CATEGORY: "label 0"
- COMPOUND: "CN(C)C(=O)c1cnc(N2CCN(C(=O)C#Cc3ccccc3)CC2)s1"
  TESTED TARGET: "mGluR5 receptor (Sus scrofa)"
  ASSIGNED CATEGORY: "label 1"
- COMPOUND: "O=C(C#Cc1ccccc1)N1CCN(c2nc(Cl)cs2)CC1"
  TESTED TARGET: "mGluR5 receptor (Sus scrofa)"
  ASSIGNED CATEGORY: "label 2"
- COMPOUND: "CN(C)C(=O)C#CC(=O)N1CCN(c2nccs2)CC1"
  TESTED TARGET: "mGluR5 receptor (Sus scrofa)"
  ASSIGNED CATEGORY: "label 0"
- COMPOUND: "COC(=O)c1cccc(C#CC(=O)N2CCN(c3nccs3)CC2)c1"
  TESTED TARGET: "mGluR5 receptor (Sus scrofa)"
  ASSIGNED CATEGORY: "label 1"
- COMPOUND: "O=C(C#Cc1ccccc1)N1CCN(c2nc(-c3ccccc3)cs2)CC1"
  TESTED TARGET: "mGluR5 receptor (Sus scrofa)"
  ASSIGNED CATEGORY: "label 2"
- COMPOUND: "Cc1ccccc1C#CC(=O)N1CCN(c2nc(-c3ccc(F)cc3)ns2)CC1"
  TESTED TARGET: "mGluR5 receptor (Sus scrofa)"
  ASSIGNED CATEGORY: "label 0"
- COMPOUND: "CC(C)(C)c1csc(N2CCN(C(=O)C#Cc3ccc(N)cc3)CC2)n1"
  TESTED TARGET: "mGluR5 receptor (Sus scrofa)"
  ASSIGNED CATEGORY: "label 0"
- COMPOUND: "O=C(C#Cc1cccc(-c2ccccc2)c1)N1CCN(c2nccs2)CC1"
  TESTED TARGET: "mGluR5 receptor (Sus scrofa)"
  ASSIGNED CATEGORY: "label 1"
- COMPOUND: "CNC(=O)c1cnc(N2CCN(C(=O)C#Cc3ccccc3)CC2)s1"
  TESTED TARGET: "mGluR5 receptor (Sus scrofa)"
  ASSIGNED CATEGORY: "label 1"
- COMPOUND: "O=C(C#Cc1cccnc1)N1CCN(c2nccs2)CC1"
  TESTED TARGET: "mGluR5 receptor (Sus scrofa)"
  ASSIGNED CATEGORY: "label 1"
